System: C. elegans
Test: microbe, parasite or virus in culture
Settings: Caenorhabditis elegans, 24 h, read-out: Percentage of motility inhibition 24 h, Table S2, C. elegans SS assay, 110 μM, 24 h, averages of 4 data points
inhibition at 110 µM listing for selected compounds.
Quick reminder: number only, in %, skip the unit.

// worked examples, inhibition at 110 µM included
CC(=O)O[C@@]12CO[C@@H]1C[C@H](O)[C@@]1(C)C(=O)[C@H](O)C3=C(C)[C@@H](OC(=O)[C@H](O)[C@@H](NC(=O)OC(C)(C)C)c4ccccc4)C[C@@](O)([C@@H](OC(=O)c4ccccc4)[C@H]21)C3(C)C :: 15
C[C@@H]1C/C=C/C=C/C=C/C=C/[C@H](O[C@@H]2O[C@H](C)[C@@H](O)[C@H](N)[C@@H]2O)C[C@@H]2O[C@](O)(C[C@@H](O)C[C@H]3O[C@@H]3/C=C/C(=O)O1)C[C@H](O)[C@H]2C(=O)O :: 0
C=C1C(=O)[C@]23[C@H](O)[C@H]1CC[C@H]2[C@@]12CO[C@]3(O)[C@@H](O)[C@@H]1C(C)(C)CC[C@@H]2O :: 3
O=c1c(O)c(-c2ccc(O)c(O)c2)oc2cc(O)ccc12 :: 2
O=c1c(O)c(-c2ccccc2)oc2cc(O)cc(O)c12 :: 8
COc1cc(O)c(C(=O)/C=C/c2ccc(O)cc2)c(OC)c1 :: 20
CCCCCCCCC(=O)NCc1ccc(O)c(OC)c1 [Nonivamide] :: 0
CC1(C)CC[C@]2(C(=O)O[C@@H]3O[C@H](CO)[C@@H](O)[C@H](O)[C@H]3O)CC[C@]3(C)C(=CC[C@@H]4[C@@]5(C)CC[C@H](O[C@@H]6O[C@H](C(=O)O)[C@@H](O)[C@H](O)[C@H]6O[C@@H]6OC[C@@H](O)[C@H](O)[C@H]6O)C(C)(C)[C@@H]5CC[C@]43C)[C@@H]2C1 [Pseudoginsenoside RT1] :: 0

Return value of inhibition at 110 µM for input Nc1cc(C(Cl)=C(Cl)Cl)c(S(N)(=O)=O)cc1S(N)(=O)=O , no commentary.
5

Return value of inhibition at 110 µM for input Cc1ncc(C[n+]2csc(CCO)c2C)c(N)n1 [Thiamine monochloride] , no commentary.
6

Return value of inhibition at 110 µM for input CC(C)(C)CC(C)(C)c1ccc(O)c(Cc2ccc(Cl)cc2Cl)c1 , no commentary.
44

Return value of inhibition at 110 µM for input CN(C)[C@@H]1C(O)=C(C(N)=O)C(=O)[C@@]2(O)C(O)=C3C(=O)c4c(O)cccc4[C@@](C)(O)[C@H]3C[C@@H]12 , no commentary.
46

Return value of inhibition at 110 µM for input O=C(O)c1cccnc1C(=O)O , no commentary.
0

---

inhibition at 110 µM listing for selected molecules.
Test system: C. elegans
Assay: microbe, parasite or virus in culture
Settings: Caenorhabditis elegans, 24 h, read-out: Percentage of motility inhibition 24 h, Table S2, C. elegans SS assay, 110 μM, 24 h, averages of 4 data points
Quick reminder: number only, in %, skip the unit.

// worked examples, inhibition at 110 µM included
CCn1cc(C(=O)O)c(=O)c2cnc(N3CCCC3)nc21 [Piromidic acid] :: 8
O=C(O)C1=CO[C@@H](O[C@@H]2O[C@H](CO)[C@@H](O)[C@H](O)[C@H]2O)[C@@H]2C(CO)=CC[C@H]12 [Geniposidic acid] :: 3
C[C@@H]1CC[C@]2(C(=O)O)CC[C@]3(C)C(=CC[C@@H]4[C@@]5(C)C[C@@H](O)[C@@H](O)C(C)(C)[C@@H]5CC[C@]43C)[C@@H]2[C@]1(C)O [Euscaphic acid] :: 27

Let us move to another entry and its inhibition at 110 µM.
Return value of inhibition at 110 µM for input CCCCCCCCCCCCCCCCCCCCCCO [1‐Docosanol] , no commentary.
25
